melting point listing for selected compounds.

Compound: COc1ccc2c(c1)c1c(n2C)CC(C(N)=O)C1 (stereo not drawn)
melting point: 178 to 180 °C

Recorded melting point of `c1ccc(N2CCN(c3nsc4nc5ccccc5n34)CC2)nc1` , please.
176 to 178 °C

Query `CNc1nc(-c2ccco2)c2ncn(Cc3ccc(OC)cc3)c2n1` next
144 to 145 °C

---

Listed here are compounds together with their documented melting point.

Compound: Cn1ccnc1CCNS(=O)(=O)c1ccccc1NS(=O)(=O)c1cccc(C(F)(F)F)c1
Val: 171 to 176 °C

Compound: CC1COCc2nc3c(N)nc4c(c3n21)CCCC4 (centres undefined)
Val: 209 to 211 °C

Compound: O=[N+]([O-])c1cc(CBr)cc(CBr)c1
Val: 100 to 101 °C

Compound: CN1CCN(C2=Nc3ccccc3N3CCCc4cc(Br)cc2c43)CC1
Val: 181 to 183 °C

Compound: CC(=O)c1ccc(-c2c(C)c(NC(=O)CC(C)(C)C)c(C)c3c2OCC3c2ccc(C(C)C)cc2)s1 (centres undefined)
Val: 157 to 158 °C

Compound: CC(=O)Nc1cccc2c1C(=O)C1(NC(C)=O)c3ccc(C(C)C)cc3OC21O (centres undefined)
Val: 189 to 191 °C

# input compound: `O=C(O)c1cn(-c2cnsn2)c2c(F)c(F)c(F)cc2c1=O` ; wanted: its melting point
205 to 207 °C

Subsequent entry: `C=CCOC(=O)COc1cccc(NC(=O)NCC(=O)N(CC(=O)OC(C)(C)C)c2ccccc2C(=O)c2ccccc2)c1`
134 to 136 °C

Input `CCc1sc2ccccc2c1C(=O)O`
136 °C

---

Parameter: melting point. Scope: all listed entries.

Worked cases, melting point given:
Molecule: CNc1ncnc(NCc2c(F)cccc2Cl)c1N
melting point: 210 to 213 °C
--
Molecule: CC(=O)Nc1ccc(C2=NNC(=S)NC2C)cc1 (stereo unspecified)
melting point: 222 to 226 °C
--
Molecule: CCCn1nc(C(C)C)c(C(=O)OCOC(C)=O)c1Cc1ccc(-c2ccccc2-c2nnn[nH]2)cc1
melting point: 58 to 63 °C

Which melting point value is on record for `O=C(O)c1c(O)cccc1-n1cccn1` ?
175 to 179 °C

Input `CC(C)(C)c1cc(C(=O)Nc2cccc(SCc3cncc4ccccc34)c2)ccc1O`
205 to 210 °C

Next record, please: `COc1ccc2nc3cc(OC)c(=O)cc-3sc2c1`
237 to 238 °C

What about `NP(N)(=O)NC(=O)c1ccc2ccccc2c1` ?
> 400 °C

Same again, this time with `Nc1ccc(Sc2cccc3c2C(=O)c2cccc(Sc4ccc(N)cc4)c2C3=O)cc1`
364 to 365 °C

Cool, now CCCN(CCC)C(=O)C(C)Oc1nc(-c2ccccc2)nc2c1CCCC2 (stereo unspecified)
73 to 74 °C

---

Measured melting point, listed per entry for reference.

Use these answered entries as a reference point.
Compound: OCc1cccc(-n2cccc2)n1
melting point: 55 °C
//
Compound: CC(=O)c1cc(-c2ccncc2)sc1Oc1ccccc1F
melting point: 93 to 96 °C
//
Compound: CCn1cc(-c2c(-c3ccccc3)nn3ccncc23)ccc1=O
melting point: 192 to 193 °C

Any idea what melting point was measured for `Cc1nc(-n2ccc(Oc3ccccc3)cc2=O)sc1C(=O)NCc1ccccc1` ?
67 to 70 °C

Okay, and `CC(C)Cn1nc(OCCCc2ccc(OC(C)C)cc2Oc2ncc(C(F)(F)F)cc2Cl)cc1CCC(=O)O` ?
71 to 73 °C

What do you get for `COC(=O)c1cc(=O)c2c(C)cc(Br)cc2[nH]1` ?
258 to 259 °C

Taken from a melting point compilation (Tetko et al.; mined from patent text by program, amines drawn as free bases though some values may be those of a salt).
